Quick list: pIC50 per entry.
# Tested on: T47D (PI3Kα-H1047R) cell line
# testDetails: HTRF phospho-AKT(S473) cell assay in T47D cells
# Assay type: cell-based, human
# measurementConditions: Homo sapiens; HTRF phospho-AKT(S473), T47D (PI3Kα-H1047R) cells, 2 hours compound incubation
pIC50: −log10 of the molar value.

Reference set (2 entries):
Cc1cc([C@@H](C)Nc2ccc(Cl)nc2C(=O)NS(C)(=O)=O)c2nc(-c3ccn(-c4ccn(C)n4)c(=O)c3)n(C)c(=O)c2c1 [Compound 807]
6.30 to 6.60
Cc1cc([C@@H](C)Nc2ccc(Cl)nc2C(=O)NS(C)(=O)=O)c2nc(N3C[C@@H]4CC(c5cnc(C)nc5)C[C@H]4C3)n(C)c(=O)c2c1 (mixture of isomers) [Compound 762]
6.30 to 6.60

Enquiry: Entry COc1ccc(C2CCN(c3nc4c([C@@H](C)Nc5ccc(Cl)nc5C(=O)NS(C)(=O)=O)cc(C)cc4c(=O)n3C)CC2)cn1 [Compound 700] needs its pIC50 filled in; supply it.
Return: 6.30 to 6.60
